- System Tested: human recombinant mGluR5 (Homo sapiens, UniProt P41594)
- Construct: tetracycline removed 3-7 days before the assay
- Sequence (P41594 21-1212): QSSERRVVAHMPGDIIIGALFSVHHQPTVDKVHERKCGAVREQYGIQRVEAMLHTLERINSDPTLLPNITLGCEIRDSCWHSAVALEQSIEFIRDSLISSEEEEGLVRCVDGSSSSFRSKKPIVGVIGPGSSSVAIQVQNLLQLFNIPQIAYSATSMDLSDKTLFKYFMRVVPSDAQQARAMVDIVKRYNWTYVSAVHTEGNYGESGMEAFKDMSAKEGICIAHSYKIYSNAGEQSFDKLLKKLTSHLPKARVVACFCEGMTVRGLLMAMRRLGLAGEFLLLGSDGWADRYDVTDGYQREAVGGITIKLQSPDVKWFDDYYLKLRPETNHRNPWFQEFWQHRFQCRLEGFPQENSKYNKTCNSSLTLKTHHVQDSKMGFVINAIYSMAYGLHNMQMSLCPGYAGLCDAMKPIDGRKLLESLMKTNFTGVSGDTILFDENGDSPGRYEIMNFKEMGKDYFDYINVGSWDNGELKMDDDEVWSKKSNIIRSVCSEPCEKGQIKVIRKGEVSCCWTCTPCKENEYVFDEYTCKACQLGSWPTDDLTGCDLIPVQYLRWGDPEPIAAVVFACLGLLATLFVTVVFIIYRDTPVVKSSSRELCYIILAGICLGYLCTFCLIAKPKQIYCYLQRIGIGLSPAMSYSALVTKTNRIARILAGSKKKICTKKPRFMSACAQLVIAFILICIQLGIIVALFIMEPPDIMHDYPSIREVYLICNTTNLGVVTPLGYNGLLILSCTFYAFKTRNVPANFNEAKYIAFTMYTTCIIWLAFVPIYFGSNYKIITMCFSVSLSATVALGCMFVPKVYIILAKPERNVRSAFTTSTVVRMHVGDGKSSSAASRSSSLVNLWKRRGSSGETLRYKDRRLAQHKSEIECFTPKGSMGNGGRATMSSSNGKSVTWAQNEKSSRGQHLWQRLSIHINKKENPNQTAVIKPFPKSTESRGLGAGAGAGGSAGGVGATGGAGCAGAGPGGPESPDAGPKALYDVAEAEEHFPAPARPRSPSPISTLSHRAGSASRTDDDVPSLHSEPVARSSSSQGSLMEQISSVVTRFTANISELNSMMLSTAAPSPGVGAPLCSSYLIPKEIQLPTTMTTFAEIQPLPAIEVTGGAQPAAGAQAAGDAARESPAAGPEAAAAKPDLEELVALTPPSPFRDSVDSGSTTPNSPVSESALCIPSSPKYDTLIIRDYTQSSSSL
- Assay Name: positive modulation of mGluR5, calcium based FLIPR assay in HEK 293 cells
- Experimental Setup: HEK 293 cell line expressing human recombinant mGluR5; EC50 of the modulation of the glutamate response (glutamate approx. 5% basal stimulation); peak height of Ca release fluorescence signal
Assay Metric: log10(EC50) (log10 of the value in nM)
Field: value | Transform: log10 | Quantity: EC50 | Unit: nM

| Compound | System Tested | log10(EC50) |
| --- | --- | --- |
| Cc1cc(-c2nc(-c3ccc(F)c(C)c3)n(CC(=O)N3CCN(c4ncccn4)CC3)n2)ccc1F [Example 07.04.153.] | human recombinant mGluR5 (Homo sapiens, UniProt P41594) | 1.34 |
| COc1cc(N2CCN(C(=O)Cn3nc(-c4ccc(F)c(C)c4)nc3-c3ccccc3)CC2)ncn1 [Example 07.04.060.] | human recombinant mGluR5 (Homo sapiens, UniProt P41594) | 1.74 |
| O=C(Cn1nc(-c2ccc(F)cc2)nc1C1CCCC1)N1CCN(c2ccccn2)CC1 [Example 07.04.047.] | human recombinant mGluR5 (Homo sapiens, UniProt P41594) | 3.14 |
| O=C(Cn1nc(-c2ccccc2)nc1-c1ccc(CN2CCOCC2)cc1)N1CCN(c2ncccn2)CC1 [Example 07.10.28.] | human recombinant mGluR5 (Homo sapiens, UniProt P41594) | 2.91 |
| COc1cc(N2CCN(C(=O)Cn3nc(-c4ccc(F)c(C)c4)nc3C3CCCC3)CC2)ncn1 [Example 07.04.112.] | human recombinant mGluR5 (Homo sapiens, UniProt P41594) | 2.49 |

Consider the following items and state reported log10(EC50) for each.
1. Cc1ccnc(N2CCN(C(=O)Cn3nc(-c4ccc(F)cc4)nc3C3CCCC3)CC2)c1 [Example 07.04.048.]
2. COc1ccnc(N2CCN(C(=O)Cn3nc(-c4ccc(F)c(C)c4)nc3C3CCCC3)CC2)c1 [Example 07.04.110.]

[2.77, 2.61]

Attribution: patent US8889677B2
